Each recorded value in this set is attributed to paper PMC10322702.

Items are presented alongside their recorded pKd.
Biological target: SARS-CoV-2 M^pro (Severe acute respiratory syndrome coronavirus 2, UniProt P0DTD1)
pKd: −log10 of the molar value. Numbered stars: 1 amine (or outer) side, 2 acyl side, 3 side chain; on linkers, the order of the positions; unused ones are H or OH. Bridge positions count the residues as written; N and C are the ends. Square brackets hold non-standard residues; d marks the D form. Peptide text beside a SMILES is read from it. Acbc(cis-1,3) = O=C([C@H]1C[C@@H](N[*:1])C1)[*:2]

compound: CC(C)C[C@@H]1NC(=O)[C@H](C)NC(=O)[C@H](Cc2c[nH]cn2)NC(=O)[C@H](Cc2ccccc2)NC(=O)[C@@H](Cc2ccc(O)cc2)NC(=O)CSC[C@H](C(N)=O)NC(=O)CNC(=O)[C@@H]2CCCN2C(=O)[C@H](CCCNC(=N)N)NC(=O)[C@H](Cc2ccc(O)cc2)NC(=O)CNC(=O)[C@H](CC(C)C)NC(=O)[C@H](CC(N)=O)NC1=O [GM4γ^14A] ({CH2CO}-[dY]FHALNLGYRPG[dC]-NH2; thioether N-13)
bound-operator: =
pKd: 8.62
--
compound: CC(C)C[C@@H]1NC(=O)[C@@H](Cc2ccc(O)cc2)NC(=O)CSC[C@H](C(N)=O)NC(=O)[C@H](C)NC(=O)[C@H](C)NC(=O)[C@H](Cc2ccc(O)cc2)NC(=O)[C@H](CCCNC(=N)N)NC(=O)[C@H](Cc2ccc(O)cc2)NC(=O)[C@H](C)NC(=O)[C@H](CO)NC(=O)[C@H](Cc2ccc(O)cc2)NC(=O)[C@H]([C@@H](C)O)NC(=O)[C@H](CO)NC(=O)[C@H](C)NC(=O)[C@H](Cc2ccc(O)cc2)NC(=O)[C@H](Cc2c[nH]cn2)NC1=O [GM3γ^210A] ({CH2CO}-[dY]LHYASTYSAYRYAA[dC]-NH2; thioether N-16)
bound-operator: =
pKd: 8.12
--
compound: CC[C@H](C)[C@@H]1NC(=O)[C@H](Cc2ccc(O)cc2)NC(=O)[C@H](CC(C)C)NC(=O)[C@H](CC(=O)O)NC(=O)[C@H](CCCNC(=N)N)NC(=O)[C@H](Cc2ccccc2)NC(=O)[C@H](C)NC(=O)[C@H](Cc2c[nH]cn2)NC(=O)[C@H](Cc2ccccc2)NC(=O)[C@@H](Cc2ccc(O)cc2)NC(=O)CSC[C@H](C(N)=O)NC(=O)CNC(=O)[C@H](CC(C)C)NC1=O [GM5γ^24A] ({CH2CO}-[dY]FHAFRDLYILG[dC]-NH2; thioether N-13)
bound-operator: =
pKd: 7.21
--
compound: CC(C)C[C@@H]1NC(=O)[C@H](CC(N)=O)NC(=O)[C@H](CC(C)C)NC(=O)[C@H]2C[C@H](C2)NC(=O)[C@H](C)NC(=O)[C@H](Cc2ccccc2)NC(=O)[C@@H](Cc2ccc(O)cc2)NC(=O)CSC[C@H](C(N)=O)NC(=O)CNC(=O)[C@@H]2CCCN2C(=O)[C@H](CCCNC(=N)N)NC(=O)[C@H](Cc2ccc(O)cc2)NC(=O)CNC1=O [GM4H3A] ({CH2CO}-[dY]FA[Acbc(cis-1,3)]LNLGYRPG[dC]-NH2; thioether N-13)
bound-operator: <
pKd: 5.00
--
compound: CC(C)C[C@@H]1NC(=O)[C@H]([C@@H](C)O)NC(=O)[C@H](Cc2ccc(O)cc2)NC(=O)[C@H]([C@@H](C)O)NC(=O)[C@H](Cc2c[nH]cn2)NC(=O)[C@@H]2CCCN2C(=O)[C@@H]2CCCN2C(=O)[C@H](Cc2ccccc2)NC(=O)[C@H](C)NC(=O)[C@H](Cc2c[nH]cn2)NC(=O)[C@H](Cc2ccccc2)NC(=O)[C@@H](Cc2ccc(O)cc2)NC(=O)CSC[C@H](C(N)=O)NC1=O [GM1γ^14A] ({CH2CO}-[dY]FHAFPPHTYTL[dC]-NH2; thioether N-13)
bound-operator: =
pKd: 8.00
